Hello, the source for this data is ChEMBL document CHEMBL2429742, in case you need it.

molecular target: Vascular endothelial growth factor receptor 2 (Homo sapiens)
Sequence (P35968 whole entry): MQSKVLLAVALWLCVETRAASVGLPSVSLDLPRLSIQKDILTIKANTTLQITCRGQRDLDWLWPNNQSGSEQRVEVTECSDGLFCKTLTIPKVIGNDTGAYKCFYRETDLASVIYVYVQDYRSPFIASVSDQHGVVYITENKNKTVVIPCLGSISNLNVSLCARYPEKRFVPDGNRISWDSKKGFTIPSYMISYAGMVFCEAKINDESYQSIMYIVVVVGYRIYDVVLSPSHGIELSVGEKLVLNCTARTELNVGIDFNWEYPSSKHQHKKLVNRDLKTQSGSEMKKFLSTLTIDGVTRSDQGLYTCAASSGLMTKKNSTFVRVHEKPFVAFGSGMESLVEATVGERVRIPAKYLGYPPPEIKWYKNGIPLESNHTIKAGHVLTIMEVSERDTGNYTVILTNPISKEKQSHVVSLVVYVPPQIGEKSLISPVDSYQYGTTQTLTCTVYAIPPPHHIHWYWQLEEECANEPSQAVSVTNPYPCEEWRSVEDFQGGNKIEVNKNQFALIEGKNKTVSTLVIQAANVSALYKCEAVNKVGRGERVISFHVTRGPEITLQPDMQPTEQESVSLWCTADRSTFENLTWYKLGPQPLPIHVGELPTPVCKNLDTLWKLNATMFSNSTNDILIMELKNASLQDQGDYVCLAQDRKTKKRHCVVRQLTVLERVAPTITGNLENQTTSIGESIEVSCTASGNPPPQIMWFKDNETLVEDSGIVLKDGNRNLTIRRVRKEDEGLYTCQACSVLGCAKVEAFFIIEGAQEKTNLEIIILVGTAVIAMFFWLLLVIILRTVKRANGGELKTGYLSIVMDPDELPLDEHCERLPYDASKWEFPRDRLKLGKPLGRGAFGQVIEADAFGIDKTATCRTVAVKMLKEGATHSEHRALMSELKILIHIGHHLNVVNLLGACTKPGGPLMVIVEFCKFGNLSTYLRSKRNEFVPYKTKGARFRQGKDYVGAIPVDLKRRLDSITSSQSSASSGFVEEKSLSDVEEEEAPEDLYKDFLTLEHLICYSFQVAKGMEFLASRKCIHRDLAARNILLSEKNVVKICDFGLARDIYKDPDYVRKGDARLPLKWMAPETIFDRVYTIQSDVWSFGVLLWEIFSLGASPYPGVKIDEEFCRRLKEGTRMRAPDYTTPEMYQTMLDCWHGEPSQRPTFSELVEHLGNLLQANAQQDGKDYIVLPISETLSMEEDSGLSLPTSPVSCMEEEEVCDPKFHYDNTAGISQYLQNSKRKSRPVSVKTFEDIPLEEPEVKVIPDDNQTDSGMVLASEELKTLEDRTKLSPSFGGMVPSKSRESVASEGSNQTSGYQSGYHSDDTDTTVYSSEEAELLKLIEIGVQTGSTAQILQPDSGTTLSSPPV
OBSERVATION_TYPE: pIC50
Schema: pIC50 number; meaning minus log10 of the concentration expressed in molar units.

Use the examples below as a reference point.
smiles_data=CCN(CC)CCCNC(=O)c1c(C)[nH]c2c1CCC/C2=C1/C(=O)Nc2ccc(F)cc21 numeric_readout=8.57
smiles_data=CCN(CC)CCNC(=O)c1c(C)[nH]c2c1CCC/C2=C1/C(=O)Nc2cccc(F)c21 numeric_readout=7.82
smiles_data=CCN(CC)CCNC(=O)c1c(C)[nH]c2c1CCC/C2=C1/C(=O)Nc2ccc(Cl)cc21 numeric_readout=8.59
smiles_data=CCN(CC)CCNC(=O)c1c(C)[nH]c2c1CCC/C2=C1/C(=O)Nc2ccc(OC)cc21 numeric_readout=7.61
smiles_data=Cc1[nH]c2c(c1C(=O)NCCCN1CCOCC1)CCC/C2=C1/C(=O)Nc2ccc(F)cc21 numeric_readout=9.00

Ask | Specify pIC50 for CCN(CC)CCNC(=O)c1c(C)[nH]c2c1CCC/C2=C1/C(=O)Nc2ccc(Br)cc21 , system Vascular endothelial growth factor receptor 2 (Homo sapiens).
Reply | 8.41
